- Test system: HPPD polypeptides
- Assay remarks: coupled HPPD activity assay: turnover and residual turnover in crude extracts
- Assay type: biochemical, Pseudomonas fluorescens
- Measurement context: absence of Cmpd. 1; high substrate concentration; kinetic changes in absorbance (OD) at 320 nm, 30 min
Please go through the items and note down their Turnover.
Write no unit; give the number alone.

What value of measured Turnover is listed for 49 (protein, mutant HPPD polypeptide) MADLYENPMGLMGFEFIEFASPTPGTLEPIFEIMGFTKVATHRSKNVHLYRQGEINLILNNEPNSIASYFAAEHGPSVCGMAFRVKDSQKAYNRALELGAQPIHIDTGPMELNLPAIKGIGGAPLYLIDRFGEGSSIYDIDFVYLEGVERNPVGAGLKVIDHLTHNVYRGRMVYWANFYEKLFNFREARYFDIKGEYTGLTSKAMSAPDGMIRIPLNEESSKGAGQIEEFLMQFNGEGIQHVAFLTDDLVKTWDALKKIGMRFMTAPPDNYYEMLEGRLPDHGEPVDQLQARGILLDGSSVEGDKRLLLQIFSETLMGPVFFEFIQRKGDDGFGPHSFKVLFEQMERDQVRRGVLTAD ?
0.316

What value of measured Turnover is listed for 20 (protein, mutant HPPD polypeptide) MADLYENPMGLMGFEFIEFASPTPGTLEPIFEIMGFTKVATHRSKNVHLYRQGEINLILNNEPNSIASYFAAEHGPSVCGMAFRVKDSQKAYNRALELGAQPIHIDTGPMELNLPAIKGIGGAPLYLIDRFGEGSSIYDIDFVYLEGVERNPVGAGLKVIDHLTHNVYRGRMVYWANFYEKLFNFREARYFDIKGEYTGLTSKAMSAPDGMIRIPLNEESSKGAGQIEEFLMQFNGEGIQHVAFLTDDLVKTWDALKKIGMRFMTAPSDEYYEMLEGRLPDHGEPVDQLQARGILLDGSSVEGDKRLLLQIFSETLMGPVFFEFIQRKGDDGFGPDSFKVLFESVERDQVRRGVLTAD ?
0.199

Given 17 (protein, mutant HPPD polypeptide) MADLYENPMGLMGFEFIEFASPTPGTLEPIFEIMGFTKVATHRSKNVHLYRQGEINLILNNEPNSIASYFAAEHGPSVCGMAFRVKDSQKAYNRALELGAQPIHIDTGPMELNLPAIKGIGGAPLYLIDRFGEGSSIYDIDFVYLEGVERNPVGAGLKVIDHLTHNVYRGRMVYWANFYEKLFNFREARYFDIKGEYTGLTSKAMSAPDGMIRIPLNEESSKGAGQIEEFLMQFNGEGIQHVAFLTDDLVKTWDALKKIGMRFMTAPADEYYEMLEGRLPDHGEPVDQLQARGILLDGSSVEGDKRLLLQIFSETLMGPVFFEFIQRKGDDGFGPDSFKVLFESVERDQVRRGVLTAD , state its recorded Turnover.
0.138

Look up Turnover for this molecule: 41 (protein, mutant HPPD polypeptide) MADLYENPMGLMGFEFIEFASPTPGTLEPIFEIMGFTKVATHRSKNVHLYRQGEINLILNNEPNSIASYFAAEHGPSVCGMAFRVKDSQKAYNRALELGAQPIHIDTGPMELNLPAIKGIGGAPLYLIDRFGEGSSIYDIDFVYLEGVERNPVGAGLKVIDHLTHNVYRGRMVYWANFYEKLFNFREARYFDIKGEYTGLTSKAMSAPDGMIRIPLNEESSKGAGQIEEFLMQFNGEGIQHVAFLTDDLVKTWDALKKIGMRFMTAPRDEYYEMLEGRLPDHGEPVDQLQARGILLDGSSVEGDKRLLLQIFSETLMGPVFFEFIQRKGDDGFGPHSFKVLFESVERDQVRRGVLTAD
0.280

Give the measured Turnover of 28 (protein, mutant HPPD polypeptide) MADLYENPMGLMGFEFIEFASPTPGTLEPIFEIMGFTKVATHRSKNVHLYRQGEINLILNNEPNSIASYFAAEHGPSVCGMAFRVKDSQKAYNRALELGAQPIHIDTGPMELNLPAIKGIGGAPLYLIDRFGEGSSIYDIDFVYLEGVERNPVGAGLKVIDHLTHNVYRGRMVYWANFYEKLFNFREARYFDIKGEYTGLTSKAMSAPDGMIRIPLNEESSKGAGQIEEFLMQFNGEGIQHVAFLTDDLVKTWDALKKIGMRFMTAPGDNYYEMLEGRLPDHGEPVDQLQARGILLDGSSVEGDKRLLLQIFSETLMGPVFFEFIQRKGDDGFGPHSFKVLFESIERDQVRRGVLTAD .
0.204

Which Turnover reading was recorded for the molecule 61 (protein, mutant HPPD polypeptide) MADLYENPMGLMGFEFIEFASPTPGTLEPIFEIMGFTKVATHRSKNVHLYRQGEINLILNNEPNSIASYFAAEHGPSVCGMAFRVKDSQKAYNRALELGAQPIHIDTGPMELNLPAIKGIGGAPLYLIDRFGEGSSIYDIDFVYLEGVERNPVGAGLKVIDHLTHNVYRGRMVYWANFYEKLFNFREARYFDIKGEYTGLTSKAMSAPDGMIRIPLNEESSKGAGQIEEFLMQFNGEGIQHVAFLTDDLVKTWDALKKIGMRFMTAPADSYYEMLEGRLPDHGEPVDQLQARGILLDGSSVEGDKRLLLQIFSETLMGPVFFEFIQRKGDDGFGPHSFKVLFESIERDQVRRGVLTAD ?
0.229
